Biological target: T1, human MSLN-R3-his protein (human, UniProt Q13421 487-598)
T1 construct: Region 3 of human MSLN, His-tagged; also called human MSLN-R3 protein; hMSLN-R3-his; not shown: His tag
T1 sequence (Q13421 495-606): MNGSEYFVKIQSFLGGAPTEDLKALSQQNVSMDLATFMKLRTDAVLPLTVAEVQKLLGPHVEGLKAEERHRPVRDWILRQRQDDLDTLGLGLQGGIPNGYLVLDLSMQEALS
Assay: ELISA, coated MSLN-R3
readoutLabel: OD450 at 0.01 nM (OD450)
Give bare numbers, in OD450.

binder | result
S009-F1.59.1 (antibody, human IgG1, kappa, V domains shown, Human-murine chimeric antibody, human IgG1/kappa constant regions) VH: EVKLEGSGGGLVQPGGSMMLSCVATGFTFSSYWMNWVRQSPDRGLEWVAEIRLKSNGFAAFYAESVKGRFTISRDDSKSSVYLQMNNLRTEDTGIYYCTYFVHWGQGILVTVSE VL: DIVLTQSPTSLAVSLGQRATISCRTSESVEYFGTILIQWYQQKPGQPPKLLIFGASNVESGVPARFSGSGSGTDFSLNIHPVEEEDIAMYFCQQNRKVPYTFGGGTTLELKR | 0.17

Moving on to another binder below.
Problem: Fill in reported OD450 at 0.01 nM for this entry: S009-F1.62.9 (antibody, human IgG1, kappa, V domains shown, Human-murine chimeric antibody, human IgG1/kappa constant regions) VH: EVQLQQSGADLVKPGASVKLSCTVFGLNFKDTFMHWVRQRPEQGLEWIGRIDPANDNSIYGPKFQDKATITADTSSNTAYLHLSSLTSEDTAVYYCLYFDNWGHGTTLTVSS VL: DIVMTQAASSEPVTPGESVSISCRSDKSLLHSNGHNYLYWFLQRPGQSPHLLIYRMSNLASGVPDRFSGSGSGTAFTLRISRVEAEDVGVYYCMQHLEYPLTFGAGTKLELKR
Result: 0.07

Ref: patent US20250250357A1
